target: UniProtKB P00533
Sequence (P00533 whole entry): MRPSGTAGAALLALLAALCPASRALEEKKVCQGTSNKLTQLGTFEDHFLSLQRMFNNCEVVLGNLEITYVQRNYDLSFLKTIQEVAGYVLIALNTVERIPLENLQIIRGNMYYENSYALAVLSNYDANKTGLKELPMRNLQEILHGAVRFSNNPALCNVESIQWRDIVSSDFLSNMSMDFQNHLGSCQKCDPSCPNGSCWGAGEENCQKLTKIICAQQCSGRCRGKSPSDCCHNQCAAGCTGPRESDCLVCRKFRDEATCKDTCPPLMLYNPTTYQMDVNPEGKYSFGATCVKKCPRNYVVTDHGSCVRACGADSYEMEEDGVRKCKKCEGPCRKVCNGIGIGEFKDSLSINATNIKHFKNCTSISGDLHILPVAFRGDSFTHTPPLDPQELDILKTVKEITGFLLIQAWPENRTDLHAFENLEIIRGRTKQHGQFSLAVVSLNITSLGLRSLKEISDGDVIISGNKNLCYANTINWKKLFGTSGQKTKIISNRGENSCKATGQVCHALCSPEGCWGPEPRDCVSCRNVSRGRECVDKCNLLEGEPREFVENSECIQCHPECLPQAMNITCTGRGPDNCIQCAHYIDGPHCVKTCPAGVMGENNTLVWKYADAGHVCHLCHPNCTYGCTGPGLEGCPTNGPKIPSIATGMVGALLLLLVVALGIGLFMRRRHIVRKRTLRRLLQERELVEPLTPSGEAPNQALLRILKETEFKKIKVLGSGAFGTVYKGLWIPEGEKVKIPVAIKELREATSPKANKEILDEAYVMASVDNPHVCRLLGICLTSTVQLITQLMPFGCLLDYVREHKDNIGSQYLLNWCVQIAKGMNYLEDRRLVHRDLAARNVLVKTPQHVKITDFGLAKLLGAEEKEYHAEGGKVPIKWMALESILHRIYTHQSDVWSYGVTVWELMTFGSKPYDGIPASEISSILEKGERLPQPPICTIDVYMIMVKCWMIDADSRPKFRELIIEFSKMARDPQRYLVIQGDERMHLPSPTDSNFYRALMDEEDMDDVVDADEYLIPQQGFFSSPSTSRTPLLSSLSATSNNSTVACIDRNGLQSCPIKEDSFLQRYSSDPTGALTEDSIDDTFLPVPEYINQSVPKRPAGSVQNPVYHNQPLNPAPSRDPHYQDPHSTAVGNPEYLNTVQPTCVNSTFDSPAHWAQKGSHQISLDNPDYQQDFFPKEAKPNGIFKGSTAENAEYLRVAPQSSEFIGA
experiment: Inhibition of […]-induced wild type EGFR phosphorylation in human A-431 cells pretreated for 2 hrs followed by EGF stimulation by immune assay
Assay type: cell-based
attributeMeasured: IC50 (µM)
Answer format: numeric, µM implied, no suffix.

Request: What IC50 appears in the records for this compound with UniProtKB P00533? "C=CC(=O)Nc1cc(Nc2ncc(C(=O)OC(C)C)c(-c3cn(C)c4ccccc34)n2)c(OC)cc1N(C)CCN(C)C"
Response: 0.0345

###

Assign AUC(0-t) to each entry below.
experiment: AUClast in CD-1 rat at 10 mg/kg, po by LC/MS/MS analysis
Type: ADME, organism-based
Parameters: dose 10 mg/kg, route po
conditionParameters: in vivo
Answer format: numeric, µg·h/mL implied, no suffix.

Request: Query (molecule): "C=CC(=O)Nc1cc(Nc2ncc(C#N)c(-c3cn4c5c(cccc35)CCC4)n2)c(OC)cc1N(C)CCN(C)C" ; field requested: AUC(0-t)
Response: 0.058

Request: Query (molecule): "C=CC(=O)Nc1cc(Nc2ncc(C(=O)OC(C)C)c(-c3cn(C)c4ccccc34)n2)c(OC)cc1N(C)CCN(C)C" ; field requested: AUC(0-t)
Response: 1.78

Request: Query (molecule): "C=CC(=O)Nc1cc(Nc2ncc(C(=O)OCC)c(-c3cn4c5c(cccc35)CCC4)n2)c(OC)cc1N(C)CCN(C)C" ; field requested: AUC(0-t)
Response: 1.48

Request: Query (molecule): "C=CC(=O)Nc1cc(Nc2ncc(C(=O)OC(C)C)c(-c3cn(C(C)=O)c4ccccc34)n2)c(OC)cc1N(C)CCN(C)C" ; field requested: AUC(0-t)
Response: 0.038

Request: Query (molecule): "C=CC(=O)Nc1cc(Nc2nccc(-c3cn4c5c(cccc35)OCC4)n2)c(OC)cc1N(C)CCN(C)C" ; field requested: AUC(0-t)
Response: 2.69

Request: Query (molecule): "C=CC(=O)Nc1cc(Nc2nccc(-c3cn4c5c(cccc35)CCC4)n2)c(OC)cc1N(C)CCN(C)C" ; field requested: AUC(0-t)
Response: 0.466

Request: Query (molecule): "C=CC(=O)Nc1cc(Nc2ncc(-c3nnco3)c(-c3cn4c5c(cccc35)CCC4)n2)c(OC)cc1N(C)CCN(C)C" ; field requested: AUC(0-t)
Response: 0.427

###

Assign log10(Cmax) to each entry below.
experiment: Cmax in CD-1 rat at 10 mg/kg, po by LC/MS/MS analysis
Assay type: ADME, organism-based
Set-up: dose 10 mg/kg, route po
conditionParameters: in vivo
Answers are given as log10 of Cmax in µg/mL.

Request: Query (molecule): "C=CC(=O)Nc1cc(Nc2ncc(C(=O)OC(C)C)c(-c3cn(C)c4ccccc34)n2)c(OC)cc1N(C)C[C@H]1CCCN1C" ; field requested: log10(Cmax)
Response: -1.40

Request: Query (molecule): "C=CC(=O)Nc1cc(Nc2ncc(C(=O)OC)c(-c3cn4c5c(cccc35)CCC4)n2)c(OC)cc1N(C)CCN(C)C" ; field requested: log10(Cmax)
Response: -0.77

Request: Query (molecule): "C=CC(=O)Nc1cc(Nc2ncc(C(=O)OC(C)C)c(-c3cn(C)c4ccccc34)n2)c(OC)cc1N(C)C[C@@H]1CCCN1C" ; field requested: log10(Cmax)
Response: -0.97

Request: Query (molecule): "C=CC(=O)Nc1cc(Nc2ncc(C(=O)OC(C)C)c(-c3cn(C)c4ccccc34)n2)c(OC)cc1N(C)CCN(C)C" ; field requested: log10(Cmax)
Response: -0.84

Request: Query (molecule): "C=CC(=O)Nc1cc(Nc2ncc(-c3nnco3)c(-c3cn4c5c(cccc35)CCC4)n2)c(OC)cc1N(C)CCN(C)C" ; field requested: log10(Cmax)
Response: -1.42

Request: Query (molecule): "C=CC(=O)Nc1cc(Nc2ncc(C#N)c(-c3cn4c5c(cccc35)CCC4)n2)c(OC)cc1N(C)CCN(C)C" ; field requested: log10(Cmax)
Response: -1.89

Request: Query (molecule): "C=CC(=O)Nc1cc(Nc2ncc(-c3cnn(C(C)C)c3)c(-c3cn4c5c(cccc35)CCC4)n2)c(OC)cc1N(C)CCN(C)C" ; field requested: log10(Cmax)
Response: -0.79
